Entries annotated with measured Percent Effect
- measuredOn: Ubiquitin-activating enzyme e1, putative (Leishmania donovani (strain BPK282A1))
- protocolSummary: Leishmania donovani Ubiquitin Activating Enzyme (LdE1)
- Format: functional
- Set-up: scale not given: direction of the effect not stated beside the values
- settings: 30 µM
Entries with a potency or affinity are not part of this list.
API: value field is a number in %; no unit string.

Check out these entries, answers already filled in.
> print(dat)
                                   molecule                                measuredon  unitname  measvalue
1  O=C(CCc1cc2n(n1)CCCN(Cc1ccccc1F)C2)NC1CC1  Ubiquitin-activating enzyme e1, putative (Leishmania donovani (strain BPK282A1))         %       1.39
2  CN(CCc1ccccc1)C1CCCN(Cc2nccn2C)C1 (configuration not stated)  Ubiquitin-activating enzyme e1, putative (Leishmania donovani (strain BPK282A1))         %        -39

Inquiry: Form field: reported Percent Effect of `c1cn(Cc2nnc(C3CCN(c4nccs4)CC3)n2C2CC2)cn1`
Reply text: 16

Inquiry: Also, `CCN1CCN(C(=O)c2ccn(C)c(=O)c2)CC1` please.
Reply text: 6.33

Inquiry: And for O=C(CCC1CCCC1)NCCn1nc(C2CCNC2)c2cccnc21 (configuration not stated) ?
Reply text: 0
